Where do the numbers come from? From patent US20030186281A1.

System: tet operator sequence
PROTOCOL_SUMMARY: β-galactosidase activity of a tetracycline-regulated promoter in transformed E. coli with revTetR, in the presence and absence of anhydrotetracycline (atc)
Assay type: cell-based, Escherichia coli
MEASUREMENT_PARAMETERS: RevTetR isolate cultured in the presence of anhydrotetracycline (ATC)
REPORTED_ENDPOINT: β-Galactosidase Activity, Cultured With ATC

| MOLECULE | DATA_VALUE |
| --- | --- |
| TetRrev4/6-27: revTetR(BD) V99R (protein, Modified tetracycline repressor, revTetR(BD) V99R) MSRLDKSKVINSALELLNEVGIEGLTTRKLAQKLGVEQPTLYWHVKNKRALLDALAVEILARHHDYSLPAAGESWQSFLRNNAMSFRRALLRYRDGAKRHLGTRPDEKQYDTVETQLRFMTENGFSLRDGLYAISAVSHFTLGAVLEQQEHTAALTDRPAAPDENLPPLLREALQIMDSDDGEQAFLHGLESLIRGFEVQLTALLQIV | 49 |
| TetRrev96/99-12: revTetR(BD) G96H V99Q (protein, Modified tetracycline repressor, revTetR(BD) G96H V99Q) MSRLDKSKVINSALELLNEVGIEGLTTRKLAQKLGVEQPTLYWHVKNKRALLDALAVEILARHHDYSLPAAGESWQSFLRNNAMSFRRALLRYRDHAKQHLGTRPDEKQYDTVETQLRFMTENGFSLRDGLYAISAVSHFTLGAVLEQQEHTAALTDRPAAPDENLPPLLREALQIMDSDDGEQAFLHGLESLIRGFEVQLTALLQIV | 18.841 |
